For each of the compounds below, state its viability, T/C.
- Tested on: LG0567-F671-PDC KRAS tumor spheroid viability;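 note: drug exposure lasted seven days after spheroids formed for three days; 100% = DMSO vehicle control viability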
- TEST_DETAILS: Anticancer human tumor LG0567-F671-PDC patient-derived lung adenocarcinoma cell line growth inhibition [KRAS2]
- CONDITION_NOTES: second compound 0.1 µM; first compound 0.1 µM; active compounds read low; spheroids with HUVEC and MSC
One number for each entry, in %.

Answered examples (3):
CC1(C)CCC(CN2CCN(c3ccc(C(=O)NS(=O)(=O)c4ccc(NCC5CCOCC5)c([N+](=O)[O-])c4)c(Oc4cnc5[nH]ccc5c4)c3)CC2)=C(c2ccc(Cl)cc2)C1 + C=CC(=O)N1CCN(c2nc(OCC3CCCN3C)nc3c2CCN(c2cccc4cccc(C)c24)C3)CC1CC#N    36.3
COc1cc2nccc(Oc3ccc(NC(=O)C4(C(=O)Nc5ccc(F)cc5)CC4)cc3)c2cc1OC + C=CC(=O)N1CCN(c2nc(=O)n(-c3c(C)ccnc3C(C)C)c3nc(-c4c(O)cccc4F)c(F)cc23)C(C)C1    20.6
CN(C)C/C=C/C(=O)Nc1cc2c(Nc3ccc(F)c(Cl)c3)ncnc2cc1O[C@H]1CCOC1 + COc1cc2nc(C)nc(NC(C)c3cc(N)cc(C(F)(F)F)c3)c2cc1OC1CCOC1    48.2

Now consider the entry below.
Per the record, CC1OCC2(CCN(c3cnc(Sc4ccnc(N)c4Cl)c(N)n3)CC2)C1N (centres undefined) + C=CC(=O)N1CCN(c2nc(=O)n(-c3c(C)ccnc3C(C)C)c3nc(-c4c(O)cccc4F)c(F)cc23)C(C)C1 has viability, T/C of 13.5
